# testTarget: Recombinant mouse FAP (Mus musculus (Mouse))
# Sequence (P97321 whole entry): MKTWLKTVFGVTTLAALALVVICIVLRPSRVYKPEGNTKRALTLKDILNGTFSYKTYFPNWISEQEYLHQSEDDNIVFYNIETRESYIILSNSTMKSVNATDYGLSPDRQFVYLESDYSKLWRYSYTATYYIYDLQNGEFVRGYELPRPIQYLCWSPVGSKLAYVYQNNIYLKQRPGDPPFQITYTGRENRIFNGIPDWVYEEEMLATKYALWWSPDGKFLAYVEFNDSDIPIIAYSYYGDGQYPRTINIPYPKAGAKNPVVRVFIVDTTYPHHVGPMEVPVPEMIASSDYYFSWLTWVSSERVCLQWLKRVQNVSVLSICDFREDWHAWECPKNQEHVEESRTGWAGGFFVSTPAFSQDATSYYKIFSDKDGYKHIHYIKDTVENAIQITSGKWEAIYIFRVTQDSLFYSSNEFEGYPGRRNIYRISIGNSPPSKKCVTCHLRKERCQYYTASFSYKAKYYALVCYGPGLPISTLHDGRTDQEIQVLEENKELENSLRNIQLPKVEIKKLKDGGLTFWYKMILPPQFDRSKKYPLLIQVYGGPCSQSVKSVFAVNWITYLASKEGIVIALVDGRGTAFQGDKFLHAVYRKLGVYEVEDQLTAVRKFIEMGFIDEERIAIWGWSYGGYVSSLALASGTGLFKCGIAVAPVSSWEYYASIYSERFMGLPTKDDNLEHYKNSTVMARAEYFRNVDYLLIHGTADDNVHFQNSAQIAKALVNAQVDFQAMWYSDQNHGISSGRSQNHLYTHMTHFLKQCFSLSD
# protocolDetails: FAP protease activity assay (mouse), FRET-based
# Type: biochemical
# conditionContext: recombinant mouse FAP, FRET protease activity
# Experimental: In order to determine the inhibitory activity a FRET-based FAP protease activity assay was established. Four parameter logistic (4PL) curve fitting and pIC50 calculations were performed using ActivityBase software.
Hi there, I'd appreciate the recorded pIC50 (mouseFAP) for every entry that follows.

Solved entries (count: 5):
>>> readoutvalue("N#C[C@@H]1CC(F)(F)CN1C(=O)CNC(=O)c1ccnc2ccc(OCCCN3CCN(C(=O)CN4CCN5CCN6CCN(CC4)CC(=O)[O][Eu]([O]C(=O)C6)[O]C(=O)C5)CC3)cc12")
9.1
>>> readoutvalue("CS(=O)(=O)c1ccc(-c2ccc3nccc(C(=O)NCC(=O)N4CC(F)(F)C[C@H]4C#N)c3c2)cc1")
9.1
>>> readoutvalue("CS(=O)(=O)c1cccc(-c2ccc3nccc(C(=O)NCC(=O)N4CC(F)(F)C[C@H]4C#N)c3c2)c1")
9
>>> readoutvalue("CS(=O)(=O)c1cccc(-c2ccc3c(C(=O)NCC(=O)N4CC(F)(F)C[C@H]4C#N)ccnc3c2)c1")
8.9
>>> readoutvalue("N#C[C@@H]1CC(F)(F)CN1C(=O)CNC(=O)c1ccnc2ccc(OCCCN3CCN(C(=O)CN4CCN5CCN6CCN(CC4)CC(=O)[O][Lu]([O]C(=O)C6)[O]C(=O)C5)CC3)cc12")
9.1

Quick batch: pIC50 (mouseFAP) for everything below.
1. CC(C)(C)c1nnc(C(=O)[C@@H]2CCCN2C(=O)CNC(=O)c2ccnc3ccccc23)o1
2. N#C[C@@H]1CC(F)(F)CN1C(=O)CNC(=O)c1ccnc2c1=CC(OCCCN1CCN(C(=O)CN3CCN4CCN5CCN(CC3)CC(=O)[O][In]([O]C(=O)C5)[O]C(=O)C4)CC1)CC=2 (stereo partly shown)

(A)
1. 8.4
2. 9

====

# testTarget: Recombinant human DPP4 (Homo sapiens (Human), UniProt P27487)
# Sequence (P27487 whole entry): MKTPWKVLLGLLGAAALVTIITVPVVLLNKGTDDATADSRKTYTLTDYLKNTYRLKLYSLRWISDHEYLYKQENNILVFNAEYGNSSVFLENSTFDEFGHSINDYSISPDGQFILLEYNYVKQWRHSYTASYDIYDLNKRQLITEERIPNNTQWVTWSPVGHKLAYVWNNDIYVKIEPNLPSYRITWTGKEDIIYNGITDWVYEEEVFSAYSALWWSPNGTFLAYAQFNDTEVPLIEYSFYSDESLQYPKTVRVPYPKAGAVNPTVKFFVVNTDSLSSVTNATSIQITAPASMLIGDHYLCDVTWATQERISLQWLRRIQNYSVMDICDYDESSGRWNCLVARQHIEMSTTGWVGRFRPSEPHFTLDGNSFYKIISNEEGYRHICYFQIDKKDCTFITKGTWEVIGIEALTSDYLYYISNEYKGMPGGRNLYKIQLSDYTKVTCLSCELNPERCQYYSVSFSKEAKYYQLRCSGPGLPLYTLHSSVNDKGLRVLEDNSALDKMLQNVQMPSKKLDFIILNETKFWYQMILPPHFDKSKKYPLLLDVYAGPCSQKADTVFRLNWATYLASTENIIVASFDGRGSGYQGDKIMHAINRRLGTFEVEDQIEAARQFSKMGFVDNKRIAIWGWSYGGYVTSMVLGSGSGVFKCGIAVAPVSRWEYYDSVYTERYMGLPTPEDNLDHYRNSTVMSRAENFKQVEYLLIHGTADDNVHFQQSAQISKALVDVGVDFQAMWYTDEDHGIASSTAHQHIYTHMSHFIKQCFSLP
# protocolDetails: DPP4 protease activity assay
# Format: biochemical
# Method: The PREP activity assay was performed using the FACS buffer (PBS including 1% FBS, Sigma-Aldrich, Cat #D8537). […] The DPP4 activity assay was performed in DPP assay buffer (25 mM Tris, pH 8.0). […] Four parameter logistic (4PL) curve fitting and pIC50 calculations were performed using ActivityBase software.
Assign pIC50 (DPP4) to each entry below.

>>> readoutvalue("N#C[C@@H]1CCCN1C(=O)CNC(=O)c1ccnc2ccc(-c3ccc(C(=O)NCCCNC(O)CN4CCN5CCN6CCN(CC4)CC(=O)[O][Eu]([O]C(=O)C6)[O]C(=O)C5)cc3)cc12 (stereo partly drawn)")
"<6"

Look at each molecule and report its pIC50 (DPP4).
1. CS(=O)(=O)c1ccc(-c2ccc3nccc(C(=O)NCC(=O)N4C[C@H](F)C[C@H]4C#N)c3c2)cc1
2. N#C[C@@H]1CC(F)(F)CN1C(=O)CNC(=O)c1ccnc2c1=CC(OCCCN1CCN(C(=O)CN3CCN4CCN5CCN(CC3)CC(=O)[O][In]([O]C(=O)C5)[O]C(=O)C4)CC1)CC=2 (stereo partly drawn)

(A)
<6
<6

====

# testTarget: Human recombinant FAP (Homo sapiens (Human))
# Sequence (Q12884 26-760): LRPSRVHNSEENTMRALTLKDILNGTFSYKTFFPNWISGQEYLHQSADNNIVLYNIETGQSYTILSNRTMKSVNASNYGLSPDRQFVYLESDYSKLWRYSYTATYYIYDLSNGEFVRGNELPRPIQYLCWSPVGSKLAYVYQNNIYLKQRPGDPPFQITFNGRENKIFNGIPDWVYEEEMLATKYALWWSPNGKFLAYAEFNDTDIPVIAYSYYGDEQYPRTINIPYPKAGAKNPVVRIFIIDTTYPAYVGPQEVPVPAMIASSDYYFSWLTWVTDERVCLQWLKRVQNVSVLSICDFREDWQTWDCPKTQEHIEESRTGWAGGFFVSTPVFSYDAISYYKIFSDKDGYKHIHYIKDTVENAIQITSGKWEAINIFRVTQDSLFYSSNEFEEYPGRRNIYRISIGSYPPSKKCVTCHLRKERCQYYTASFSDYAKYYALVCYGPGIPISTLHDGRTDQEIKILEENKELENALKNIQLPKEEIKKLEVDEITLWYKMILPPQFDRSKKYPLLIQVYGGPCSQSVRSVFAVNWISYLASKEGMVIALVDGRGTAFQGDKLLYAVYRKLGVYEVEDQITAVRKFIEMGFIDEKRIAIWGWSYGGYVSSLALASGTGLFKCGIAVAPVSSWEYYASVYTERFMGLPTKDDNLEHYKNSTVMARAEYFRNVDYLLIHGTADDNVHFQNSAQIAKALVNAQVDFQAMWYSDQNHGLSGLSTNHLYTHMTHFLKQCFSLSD
# protocolDetails: FAP protease activity assay (human), FRET-based
# Type: biochemical
# conditionContext: recombinant human FAP, FRET protease activity
# Experimental: In order to determine the inhibitory activity a FRET-based FAP protease activity assay was established. Four parameter logistic (4PL) curve fitting and pIC50 calculations were performed using ActivityBase software (IDBS).
Exercise: state measured pIC50 (Activity) for each of the compounds provided.
Numbers only.

Solved cases below.
>>> readoutvalue("CS(=O)(=O)c1cccc(-c2ccc3nccc(C(=O)NCC(=O)N4CC(F)(F)C[C@H]4C#N)c3c2)c1 [Compound 3BP-3126]")
9.2
>>> readoutvalue("O=C(NCC(=O)N1CCC[C@H]1C(=O)c1ncco1)c1ccnc2ccccc12 [Compound 3BP-3208]")
8.2

Could you now look at the following compound, please?
(Q) Quickly give me recorded pIC50 (Activity) for N#C[C@@H]1CC(F)(F)CN1C(=O)CNC(=O)c1ccnc2c1=CC(OCCCN1CCN(C(=O)CN3CCN4CCN5CCN(CC3)CC(=O)[O][In]([O]C(=O)C5)[O]C(=O)C4)CC1)CC=2 (stereo partly drawn) [Compound 3BP-3468]
(A) 9.2
